- Tested on: ACHN
- test method notes: NCI DTP in-vitro dose response, Renal Cancer
- Type: cell-based
- run parameters: ACHN; read-out: LC50 (the source's name)
reported property: CC50

[ask] # return recorded CC50 for input `O=C1c2ccccc2C(=O)c2c1ccc1nccnc21`
[reply] > 100 µM

###

- Test system: SK-MEL-2
- test method notes: NCI DTP in-vitro dose response, Melanoma
- Format: cell-based
reported property: CC50

[ask] # return recorded CC50 for input `O=C1c2ccccc2C(=O)c2c1ccc1nccnc21`
[reply] > 100 µM

###

Entries and their CC50 values follow.
- System: HCC-2998
- test method notes: NCI DTP in-vitro dose response, Colon Cancer
- Assay type: cell-based

>  <smiles repr>
O=C1c2ccccc2C(=O)c2c1ccc1nccnc21

>  <target or system>
HCC-2998

>  <CC50>
> 100 µM

$$$$

# evaluate next
[ask] # return recorded CC50 for input `CCc1nc2ccc3c(c2[nH]1)C(=O)c1ccccc1C3=O`
[reply] > 100 µM

###

- System: OVCAR-8
- test method notes: NCI DTP in-vitro dose response, Ovarian Cancer
- Format: cell-based
Entries and their CC50 values follow.

>  <smiles repr>
CCc1nc2ccc3c(c2[nH]1)C(=O)c1ccccc1C3=O

>  <CC50>
> 100 µM

$$$$

[ask] # return recorded CC50 for input `O=C1c2ccccc2C(=O)c2c1ccc1nccnc21`
[reply] > 100 µM

###

- Tested on: UACC-62
- test method notes: in vitro test at 1.0×10^−5 M, Skin cancer cell
- Assay type: cell-based
- run parameters: 1.0×10^−5 molal concentration (M)
reported property: inhibition effect on cancer cell line (Table 2 value)
Please respond with just the number, no unit label.

>  <compound>
O=C1c2ccccc2C(=O)c2c1ccc1nccnc21 [No. 25, Naphthol-[2,3-f]quinoxaline-7,12-dione]

>  <readout value>
90.47

$$$$
>  <compound>
CC1(C)Nc2ccc3c(c2N1)C(=O)c1ccccc1C3=O

>  <readout value>
67.58

$$$$

[ask] # return recorded inhibition effect on cancer cell line (Table 2 value) for input `O=C1c2ccccc2C(=O)c2c1ccc1[nH]c(=O)c(=O)[nH]c21`
[reply] 95.25

[ask] # return recorded inhibition effect on cancer cell line (Table 2 value) for input `CCc1nc2ccc3c(c2[nH]1)C(=O)c1ccccc1C3=O`
[reply] 51.35

###

- System: 786-0
- test method notes: NCI DTP in-vitro dose response, Renal Cancer
- Type: cell-based
reported property: CC50

[ask] # return recorded CC50 for input CCc1nc2ccc3c(c2[nH]1)C(=O)c1ccccc1C3=O [TABLE 4-7]
[reply] > 100 µM

###

- Test system: U251
- test method notes: NCI DTP in-vitro dose response, CNS Cancer
- Format: cell-based
Entries and their CC50 values follow.

>  <smiles repr>
O=C1c2ccccc2C(=O)c2c1ccc1nccnc21

>  <target or system>
U251

>  <CC50>
> 100 µM

$$$$

[ask] # return recorded CC50 for input `CCc1nc2ccc3c(c2[nH]1)C(=O)c1ccccc1C3=O`
[reply] > 100 µM

###

- Tested on: HOP-92
reported property: CC50

[ask] Output reported CC50 of the compound O=C1c2ccccc2C(=O)c2c1ccc1nccnc21 [TABLE 5-2] on HOP-92.
[reply] > 100 µM

###

- Tested on: MCF7
- test method notes: NCI DTP in-vitro dose response, Breast Cancer
- Format: cell-based
reported property: CC50

[ask] Output reported CC50 of the compound `CCc1nc2ccc3c(c2[nH]1)C(=O)c1ccccc1C3=O` on MCF7.
[reply] > 100 µM

###

- Test system: HS 578T
- test method notes: NCI DTP in-vitro dose response, Breast Cancer
- Format: cell-based
- run parameters: HS 578T; read-out: LC50 (the source's name)
reported property: CC50

[ask] Output reported CC50 of the compound O=C1c2ccccc2C(=O)c2c1ccc1nccnc21 [TABLE 5-9] on HS 578T.
[reply] > 100 µM

###

- System: SN12C
- test method notes: in vitro test at 1.0×10^−5 M, Kidney cancer cell
- Assay type: cell-based
- run parameters: 1.0×10^−5 molal concentration (M)
Entries and their inhibition effect on cancer cell line (Table 2 value) values follow.
Please respond with just the number, no unit label.

>  <compound>
CCc1nc2ccc3c(c2[nH]1)C(=O)c1ccccc1C3=O [No. 4]

>  <readout value>
68.53

$$$$
>  <compound>
CC1(C)Nc2ccc3c(c2N1)C(=O)c1ccccc1C3=O [No. 20]

>  <readout value>
91.98

$$$$
>  <compound>
O=C1c2ccccc2C(=O)c2c1ccc1[nH]c(=O)c(=O)[nH]c21 [No. 26]

>  <readout value>
94.07

$$$$

# evaluate next
[ask] # return recorded inhibition effect on cancer cell line (Table 2 value) for input O=C1c2ccccc2C(=O)c2c1ccc1nccnc21 [No. 25, Naphthol-[2,3-f]quinoxaline-7,12-dione]
[reply] 64.65

###

- System: T-47D
- test method notes: NCI DTP in-vitro dose response, Breast Cancer
- Format: cell-based
- run parameters: T-47D; read-out: LC50 (the source's name)
reported property: CC50

[ask] # return recorded CC50 for input O=C1c2ccccc2C(=O)c2c1ccc1nccnc21 [TABLE 5-9]
[reply] > 100 µM

###

Entries and their CC50 values follow.
- System: M14
- test method notes: NCI DTP in-vitro dose response, Melanoma
- Format: cell-based

>  <molecule>
O=C1c2ccccc2C(=O)c2c1ccc1nccnc21 [TABLE 5-5]

>  <CC50>
> 100 µM

$$$$

# evaluate next
[ask] # return recorded CC50 for input CCc1nc2ccc3c(c2[nH]1)C(=O)c1ccccc1C3=O [TABLE 4-5]
[reply] > 100 µM

###

- Test system: CAKI-1
- test method notes: NCI DTP in-vitro dose response, Renal Cancer
- Assay type: cell-based
- run parameters: CAKI-1; read-out: LC50 (the source's name)
reported property: CC50

[ask] # return recorded CC50 for input `O=C1c2ccccc2C(=O)c2c1ccc1nccnc21`
[reply] > 100 µM

###

- Tested on: UACC-62
- test method notes: NCI DTP in-vitro dose response, Melanoma
- Assay type: cell-based
Entries and their CC50 values follow.

>  <compound>
CCc1nc2ccc3c(c2[nH]1)C(=O)c1ccccc1C3=O [TABLE 4-5]

>  <target or system>
UACC-62

>  <reported property>
CC50

>  <readout value>
> 100 µM

$$$$

# evaluate next
[ask] # return recorded CC50 for input O=C1c2ccccc2C(=O)c2c1ccc1nccnc21 [TABLE 5-5]
[reply] > 100 µM

###

- Test system: DU-145
- run parameters: read-out: LC50; DU-145
reported property: CC50

[ask] # return recorded CC50 for input O=C1c2ccccc2C(=O)c2c1ccc1nccnc21 [TABLE 5-8]
[reply] > 100 µM

###

- System: NCI-H23
reported property: CC50

[ask] Output reported CC50 of the compound `O=C1c2ccccc2C(=O)c2c1ccc1nccnc21` on NCI-H23.
[reply] > 100 µM

###

- System: K-562
- test method notes: NCI DTP in-vitro dose response, Leukemia
reported property: CC50

[ask] # return recorded CC50 for input O=C1c2ccccc2C(=O)c2c1ccc1nccnc21 [TABLE 5-1]
[reply] > 100 µM

###

- Test system: ACHN
- test method notes: NCI DTP in-vitro dose response, Renal Cancer
- Assay type: cell-based
reported property: CC50

[ask] Output reported CC50 of the compound CCc1nc2ccc3c(c2[nH]1)C(=O)c1ccccc1C3=O [TABLE 4-7] on ACHN.
[reply] > 100 µM

###

- System: BT-549
- test method notes: NCI DTP in-vitro dose response, Breast Cancer
- Format: cell-based
reported property: CC50

[ask] # return recorded CC50 for input CCc1nc2ccc3c(c2[nH]1)C(=O)c1ccccc1C3=O [TABLE 4-9]
[reply] > 100 µM

###

- System: BT-549
- test method notes: NCI DTP in-vitro dose response, Breast Cancer
- Format: cell-based
- run parameters: BT-549; read-out: LC50 (the source's name)
reported property: CC50

[ask] # return recorded CC50 for input O=C1c2ccccc2C(=O)c2c1ccc1nccnc21 [TABLE 5-9]
[reply] > 100 µM

###

- Test system: HT29
- test method notes: NCI DTP in-vitro dose response, Colon Cancer
- Format: cell-based
reported property: CC50

>  <compound>
CCc1nc2ccc3c(c2[nH]1)C(=O)c1ccccc1C3=O [TABLE 4-3]

>  <target or system>
HT29

>  <CC50>
> 100 µM

$$$$

# evaluate next
[ask] Output reported CC50 of the compound O=C1c2ccccc2C(=O)c2c1ccc1nccnc21 [TABLE 5-3] on HT29.
[reply] > 100 µM

###

- Test system: UO-31
- test method notes: in vitro test at 1.0×10^−5 M, Kidney cancer cell
- Format: cell-based
- run parameters: 1.0×10^−5 molal concentration (M)
reported property: inhibition effect on cancer cell line (Table 2 value)
Please respond with just the number, no unit label.

Observe how each entry below is paired with its result.
>  <molecule>
CC1(C)Nc2ccc3c(c2N1)C(=O)c1ccccc1C3=O [No. 20]

>  <target or system>
UO-31

>  <readout value>
30.65

$$$$
>  <molecule>
CCc1nc2ccc3c(c2[nH]1)C(=O)c1ccccc1C3=O [No. 4]

>  <target or system>
UO-31

>  <readout value>
23.94

$$$$
>  <molecule>
O=C1c2ccccc2C(=O)c2c1ccc1[nH]c(=O)c(=O)[nH]c21 [No. 26]

>  <target or system>
UO-31

>  <readout value>
61.43

$$$$

# evaluate next
[ask] # return recorded inhibition effect on cancer cell line (Table 2 value) for input O=C1c2ccccc2C(=O)c2c1ccc1nccnc21 [No. 25, Naphthol-[2,3-f]quinoxaline-7,12-dione]
[reply] 51.45
